System: Pseudomonas aeruginosa MB9798 vs MB9799
Details: ratio MITC95 PA_9798/MITC95 PA_9799
Endpoint name: Efflux ratio
Just the number.

Input line: Fill in: Efflux ratio of Nc1nc2c(-c3ccc(S(=O)(=O)NC4(CO)CCNC4)c(S(N)(=O)=O)c3-c3nnn[nH]3)cccc2s1 (stereo not shown) [Example 84] is ___
Output line: 1.00

Input line: Follow-up item: NC[C@H](N)CNS(=O)(=O)c1ccc(-c2cccc3[nH]c(N)nc23)c(-c2nn[nH]n2)c1S(N)(=O)=O [Example 370]
Output line: 1.00

Input line: Follow-up item: NCc1nc2c(-c3ccc(S(=O)(=O)N[C@@H](CN)CO)c(S(N)(=O)=O)c3-c3nn[nH]n3)cccc2s1 [Example 381]
Output line: 1.50

Input line: Follow-up item: Nc1nc2c(-c3ccc(S(=O)(=O)NC[C@@]4(N)CCNC4)c(S(N)(=O)=O)c3-c3nn[nH]n3)cccc2[nH]1 [Example 251]
Output line: 1.00

Input line: Follow-up item: Nc1nc2c(-c3ccc(S(=O)(=O)NCC4CNCCO4)c(S(N)(=O)=O)c3-c3nnn[nH]3)cccc2s1.O=C(O)C(F)(F)F (stereo not shown) [Example 112]
Output line: 1.00

Input line: Follow-up item: CNc1nc2c(-c3ccc(S(=O)(=O)N[C@H]4CCNC4)c(S(N)(=O)=O)c3-c3nn[nH]n3)cccc2[nH]1 [Example 295]
Output line: 1.00

Input line: Follow-up item: COc1ccnc(CNS(=O)(=O)c2ccc(-c3cccc4sc(N)nc34)c(-c3nnn[nH]3)c2S(N)(=O)=O)n1 [Example 34]
Output line: 4.00

====

Task for the reader: assign each of the following compounds its reported Serratia marcescens MITC95.
Test system: Serratia marcescens expressing IMP-1 (CL5741)
Format: cell-based
Conditions: IMP-1 strain CL5741, with imipenem 1 μg/ml, 95% inhibition of growth

Input line: Fill in: Serratia marcescens MITC95 of NCC(=O)NC1C=C(c2ccc(S(=O)(=O)N[C@@H]3CCNC3)c(S(N)(=O)=O)c2-c2nn[nH]n2)CCC1 (stereo partly shown) is ___
Output line: 1.563 µM

Input line: Follow-up item: NCC(CN)NS(=O)(=O)c1ccc(-c2cccc3ccc(N)nc23)c(-c2nn[nH]n2)c1S(N)(=O)=O
Output line: 1.563 µM

Input line: Follow-up item: NCC(CN)NS(=O)(=O)c1ccc(-c2ccnc(-c3cnc(N)[nH]3)c2)c(-c2nnn[nH]2)c1S(N)(=O)=O
Output line: 3.125 µM

Input line: Follow-up item: Nc1nc2c(-c3ccc(S(=O)(=O)NC[C@@]4(N)CCNC4)c(S(N)(=O)=O)c3-c3nn[nH]n3)cccc2[nH]1
Output line: 0.7813 µM

====

Task for the reader: assign each of the following molecules its reported Efflux ratio.
Test system: Pseudomonas aeruginosa MB9798 vs MB9799
Conditions: ratio MITC95 PA_9798/MITC95 PA_9799

Input line: Fill in: Efflux ratio of NC[C@@H](N)CNS(=O)(=O)c1ccc(-c2cccc3ccc(N)nc23)c(-c2nn[nH]n2)c1S(N)(=O)=O is ___
Output line: 1.00

Input line: Follow-up item: Nc1nc2c(-c3ccc(S(=O)(=O)NCCC(N)CF)c(S(N)(=O)=O)c3-c3nnn[nH]3)cccc2s1.O=CO (stereo not shown)
Output line: 1.00

Input line: Follow-up item: NCCN1CC[C@H](NS(=O)(=O)c2ccc(-c3cccc4[nH]c(N)nc34)c(-c3nn[nH]n3)c2S(N)(=O)=O)C1
Output line: 1.00

Input line: Follow-up item: CN(C1CNC1)S(=O)(=O)c1ccc(-c2cccc3sc(N)nc23)c(-c2nnn[nH]2)c1S(N)(=O)=O.O=C(O)C(F)(F)F
Output line: 1.00

Input line: Follow-up item: Cn1c(N)nc2c(-c3ccc(S(=O)(=O)N4CCNCC4)c(S(N)(=O)=O)c3-c3nn[nH]n3)cccc21
Output line: 3.51

Input line: Follow-up item: Nc1ncccc1-c1ccc(S(=O)(=O)NC[C@H]2CNCCN2)c(S(N)(=O)=O)c1-c1nn[nH]n1
Output line: 2.00

Input line: Follow-up item: NCCCNS(=O)(=O)c1ccc(-c2cccc3[nH]cnc23)c(-c2nn[nH]n2)c1S(N)(=O)=O
Output line: 1.00
